Tested on: P12-Ichikawa
Experiment: cell viability relative to DMSO control; higher = less cytotoxic
Settings: RPMI 5 mM glucose + 10% FBS; 48 h; 0.19 µM
Would you mind telling me the reported cell viability of each entry?
I'd appreciate it if you included the unit after the number.

The following compounds have reported results that may help.
INSERT INTO measurements (structure_smiles_string, assay_value) VALUES
  ('CCNC(=O)Nc1ccc(Oc2ncnc(N)c2/C=N/OC)cc1Cl', '128%'),
  ('c1cc(-c2cnn3cc(-c4ccc(OCCN5CCCCC5)cc4)cnc23)ccn1', '79%'),
  ('C[C@@H]1CC[C@@]2(CC[C@]3(C)\C(=C/C[C@@H]4[C@@]5(C)CC[C@H](O)C(C)(C)[C@@H]5CC[C@@]34C)[C@@H]2[C@H]1C)C(O)=O', '116%');

Specify the recorded cell viability for C[C@H](NC(=O)Cc1cc(F)cc(F)c1)C(=O)N[C@H](C(=O)OC(C)(C)C)c1ccccc1 , system: P12-Ichikawa. 95.4%
